Experiment Notes: RP, Thermo Scientific Hypersil GOLD, 1.9 µm, 40 °C, 0.4 mL/min; A: water + 0.1% formic acid, pH 3; B: acetonitrile + 0.1% formic acid, pH 3; gradient (min/%B) 0/0 1/0 11/100 13/100 14/0 16/0
Condition Parameters: stereoisomer not certain
Please go through the items and note down their LC retention time.
Value expressed in min; do not type the unit.

Exam item: Recorded LC retention time for CC(=O)N[C@@H]1[C@@H](O)[C@H](O)[C@@H](CO)O[C@H]1N , please?
Marked response: 0.6

Exam item: Recorded LC retention time for Nc1ncnc2nc[nH]c12 , please?
Marked response: 0.74

Exam item: Recorded LC retention time for CCCCCCCCCCCCCCCCCCCC(=O)O [ARACHIDATE] , please?
Marked response: 13.5

Exam item: Recorded LC retention time for Nc1ccccc1C(=O)CC(N)C(=O)O (stereo unspecified) , please?
Marked response: 3.31

Exam item: Recorded LC retention time for O=C(O)CCc1ccccc1 [hydrocinnamic acid] , please?
Marked response: 6.87

Exam item: Recorded LC retention time for Nc1nc2c(ncn2C2OC3COP(=O)(O)OC3C2O)c(=O)[nH]1 (stereo unspecified) , please?
Marked response: 1.29

###

Experiment Notes: RP, Thermo Scientific Hypersil GOLD, 1.9 µm, 40 °C, 0.4 mL/min; A: water + 0.1% formic acid, pH 3; B: acetonitrile + 0.1% formic acid, pH 3; gradient (min/%B) 0/0 1/0 11/100 13/100 14/0 16/0
Condition Parameters: stereoisomer not certain
Recorded Metric: log10(LC retention time) (log10 of the value in min)
In plain terms, each number is the log10 of measured LC retention time in min.

Exam item: Recorded log10(LC retention time) for OCC1OC(OC2(CO)OC(CO)C(O)C2O)C(O)C(O)C1O (stereo unspecified) [SUCROSE] , please?
Marked response: -0.16

Exam item: Recorded log10(LC retention time) for Cn1c(=O)[nH]c(=O)c2[nH]cnc21 [3-Methylxanthine] , please?
Marked response: 0.42

Exam item: Recorded log10(LC retention time) for NCC(O)c1ccccc1 (stereo unspecified) [PHENYLETHANOLAMINE] , please?
Marked response: 0.35

Exam item: Recorded log10(LC retention time) for O=C(O)C(O)c1ccc(O)c(O)c1 (stereo unspecified) [3-4 DIHYDROXYMANDELATE] , please?
Marked response: -0.04

Exam item: Recorded log10(LC retention time) for O=C(O)c1cccnc1C(=O)O [QUINOLINATE] , please?
Marked response: 0.09

Exam item: Recorded log10(LC retention time) for C[N+](C)(C)CCO [CHOLINE] , please?
Marked response: -0.21

Exam item: Recorded log10(LC retention time) for NC(CS(=O)O)C(=O)O (stereo unspecified) [3-SULFINOALANINE] , please?
Marked response: -0.17

Exam item: Recorded log10(LC retention time) for Cn1cnc(=N)c2[nH]cnc21 [3-METHYLADENINE] , please?
Marked response: -0.10

Exam item: Recorded log10(LC retention time) for CCCCC(N)C(=O)O (stereo unspecified) [NORLEUCINE] , please?
Marked response: 0.22

Exam item: Recorded log10(LC retention time) for c1ccc2ncccc2c1 [QUINOLINE] , please?
Marked response: 0.58

Exam item: Recorded log10(LC retention time) for CCOC(=O)Cc1c[nH]c2ccccc12 [ETHYL 3-INDOLEACETATE] , please?
Marked response: 0.90
